# PROTOCOL_SUMMARY: Drug level in brain of Sprague-Dawley rat model of haloperidol-induced catalepsy at 1 to 10 mg/kg, po administered 60 mins after haloperidol-challenge measured after 30 mins
# Type: ADME, organism-based
# REPORTED_CONDITIONS: read-out: Drug uptake
METRIC: concentration at 0.5 h (nM)
Express the result in nM but write the number alone.

concentration at 0.5 h reported for this molecule CCc1cnc(Oc2ccc(NC(=O)c3ncccc3N)cc2Cl)nc1 : 172

====

# ASSAY_SYSTEM: Metabotropic glutamate receptor 4 (Rattus norvegicus, UniProt P31423)
# Sequence (P31423 whole entry): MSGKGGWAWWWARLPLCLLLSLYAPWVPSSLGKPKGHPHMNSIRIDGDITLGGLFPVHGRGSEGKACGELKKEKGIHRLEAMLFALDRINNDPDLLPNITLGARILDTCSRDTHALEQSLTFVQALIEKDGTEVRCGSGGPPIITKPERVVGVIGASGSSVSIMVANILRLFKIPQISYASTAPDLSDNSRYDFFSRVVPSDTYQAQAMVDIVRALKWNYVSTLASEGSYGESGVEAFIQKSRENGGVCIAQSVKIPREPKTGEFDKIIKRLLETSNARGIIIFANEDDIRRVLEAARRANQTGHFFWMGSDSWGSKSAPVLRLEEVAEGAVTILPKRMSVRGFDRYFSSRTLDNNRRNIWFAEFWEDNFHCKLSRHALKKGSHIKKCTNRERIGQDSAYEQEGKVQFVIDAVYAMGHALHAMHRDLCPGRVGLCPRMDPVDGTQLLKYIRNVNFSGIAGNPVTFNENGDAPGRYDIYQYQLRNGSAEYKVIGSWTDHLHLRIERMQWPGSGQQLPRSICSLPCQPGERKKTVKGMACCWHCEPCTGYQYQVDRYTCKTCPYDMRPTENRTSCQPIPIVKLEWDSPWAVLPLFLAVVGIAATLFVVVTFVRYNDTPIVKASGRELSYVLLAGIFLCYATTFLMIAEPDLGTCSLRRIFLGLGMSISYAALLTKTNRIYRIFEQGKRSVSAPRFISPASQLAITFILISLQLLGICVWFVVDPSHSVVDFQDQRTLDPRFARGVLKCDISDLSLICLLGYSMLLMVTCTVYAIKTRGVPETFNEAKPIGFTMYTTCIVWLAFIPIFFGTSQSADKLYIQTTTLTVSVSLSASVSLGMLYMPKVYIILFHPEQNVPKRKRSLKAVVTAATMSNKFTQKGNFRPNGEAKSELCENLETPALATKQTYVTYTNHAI
# PROTOCOL_SUMMARY: Positive allosteric modulator activity at rat mGlu4 receptor
Assignment: determine reported pEC50 for the given compounds.
API: returns pEC50 as number; meaning -log10 of concentration in mol/L.

# value of pEC50, Metabotropic glutamate receptor 4 (Rattus norvegicus, UniProt P31423), item CCc1cnc(Oc2ccc(NC(=O)c3ncccc3N)cc2Cl)nc1 = 7.33

// compound Nc1cccnc1C(=O)Nc1ccc(N2C(=O)c3ccccc3C2=O)c(Cl)c1 , assay Metabotropic glutamate receptor 4 (Rattus norvegicus, UniProt P31423), pEC50 value: 6.89

====

# PROTOCOL_SUMMARY: Drug level in brain of Sprague-Dawley rat model of haloperidol-induced catalepsy at 1 mg/kg, po administered 60 mins after haloperidol-challenge measured after 30 mins
# Assay type: ADME, organism-based
# REPORTED_CONDITIONS: read-out: Drug uptake
METRIC: concentration at 0.5 h (nM)
Reply with just the number (in nM).

What the record says about Nc1cccnc1C(=O)Nc1ccc(N2C(=O)c3ccccc3C2=O)c(Cl)c1 : concentration at 0.5 h is 334

====

# ASSAY_SYSTEM: Metabotropic glutamate receptor 4 (Homo sapiens, UniProt Q14833)
# Sequence (Q14833 whole entry): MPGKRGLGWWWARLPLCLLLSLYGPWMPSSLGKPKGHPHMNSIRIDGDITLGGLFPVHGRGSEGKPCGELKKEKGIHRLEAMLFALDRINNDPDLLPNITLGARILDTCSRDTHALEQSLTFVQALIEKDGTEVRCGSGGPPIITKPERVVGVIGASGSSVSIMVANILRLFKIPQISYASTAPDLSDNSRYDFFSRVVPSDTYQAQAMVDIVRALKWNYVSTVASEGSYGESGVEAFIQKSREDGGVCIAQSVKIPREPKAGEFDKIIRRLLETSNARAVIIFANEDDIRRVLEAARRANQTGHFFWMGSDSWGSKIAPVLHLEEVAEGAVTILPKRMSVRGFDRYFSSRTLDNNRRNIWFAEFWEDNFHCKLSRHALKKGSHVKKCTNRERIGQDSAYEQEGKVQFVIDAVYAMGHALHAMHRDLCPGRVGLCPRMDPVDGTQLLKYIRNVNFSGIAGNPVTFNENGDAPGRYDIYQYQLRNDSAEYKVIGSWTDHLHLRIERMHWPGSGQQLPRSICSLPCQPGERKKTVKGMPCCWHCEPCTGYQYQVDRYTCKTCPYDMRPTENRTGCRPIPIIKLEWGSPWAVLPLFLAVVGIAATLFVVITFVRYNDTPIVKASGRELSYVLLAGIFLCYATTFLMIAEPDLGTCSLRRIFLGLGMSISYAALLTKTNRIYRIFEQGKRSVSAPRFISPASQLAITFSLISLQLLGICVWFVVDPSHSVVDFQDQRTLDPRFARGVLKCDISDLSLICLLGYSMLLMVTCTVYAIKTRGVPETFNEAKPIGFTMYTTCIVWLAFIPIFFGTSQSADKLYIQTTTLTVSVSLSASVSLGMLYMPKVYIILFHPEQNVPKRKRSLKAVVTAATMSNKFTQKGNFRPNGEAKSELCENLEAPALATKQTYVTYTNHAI
# PROTOCOL_SUMMARY: Positive allosteric modulator activity at human mGlu4 receptor expressed in CHO cells expressing Gqi5 by calcium mobilization assay
# Type: functional, cell-based
# REPORTED_CONDITIONS: read-out: pEC50 (converted)
Classification field. Basis: EC50. Definitions: Low: < 700 nM; Mid: ≥ 700 nM and < 2000 nM; High: ≥ 2000 nM

[in] Kindly state the category for this molecule: Cc1ncc(Oc2ccc(NC(=O)c3ncccc3N)cc2Cl)cn1
[out] Mid

[in] Place this molecule in its band: CC1c2ccccc2C(=O)N1c1ccc(NC(=O)c2ncccc2N)cc1Cl (configuration not stated)
[out] High

[in] Category of Nc1cccnc1C(=O)Nc1ccc(N2Cc3ncccc3C2=O)c(Cl)c1 , please.
[out] Mid

[in] Which class is correct for the following molecule? CC(C)CC1CC(=O)N(c2ccc(NC(=O)c3ncccc3N)cc2Cl)C1 (configuration not stated)
[out] Mid

[in] Using the reported EC50, which band applies to COc1ccc2c(c1)C(=O)N(c1ccc(NC(=O)c3ncccc3N)cc1Cl)C2 ?
[out] Low

[in] Entry Nc1cccnc1C(=O)Nc1ccc(N2CC(Cc3ccccc3)CC2=O)c(Cl)c1 (configuration not stated) belongs to which category?
[out] Mid

[in] Sort Nc1cccnc1C(=O)Nc1cccc(Cl)c1 into one of the categories.
[out] Low

[in] Band assignment needed for Nc1cccnc1C(=O)Nc1ccc(N2CC3(CCCCC3)CC2=O)c(Cl)c1 please.
[out] Mid

[in] Sort Nc1cccnc1C(=O)Nc1ccc(N2Cc3ccccc3CC2=O)c(Cl)c1 into one of the categories.
[out] High

[in] # bin label for Nc1cccnc1C(=O)Nc1ccc(N2Cc3ccccc3C2=O)c(Cl)c1
[out] Low

[in] Exam item: assign CC1(C2CC2)CC(=O)N(c2ccc(NC(=O)c3ncccc3N)cc2Cl)C1 (configuration not stated) to the correct category.
[out] High

[in] Bin? Nc1cccnc1C(=O)Nc1ccc(N2CCc3ccccc3C2=O)c(Cl)c1
[out] Mid

[in] Note: place this molecule into its band. Item: CCc1cnc(Oc2ccc(NC(=O)c3ncccc3N)cc2Cl)nc1
[out] Low

[in] Consider Nc1cccnc1C(=O)Nc1ccc(N2C(=O)c3ccccc3C2=O)c(Cl)c1 . To which EC50 class does it belong?
[out] Low

[in] Class for Nc1cccnc1C(=O)Nc1ccc(N2CC(c3cccnc3)CC2=O)c(Cl)c1 (configuration not stated) ?
[out] High

[in] Kindly identify the class of Nc1cccnc1C(=O)Nc1ccc(N2CC(c3c(F)cccc3Cl)CC2=O)c(Cl)c1 (configuration not stated) .
[out] Mid
